Assay procedure: P-glycoprotein substrates identified in KB-8-5-11 adenocarcinoma cell line, qHTS therapeutic library screen (AID 1346987); note: nearly all actives have a fitted effect of over 65% in size
Experimental setup: KB-8-5-11 (P-gp overexpressing) viability, CellTiter-Glo, 72 h; series mostly up to 44.5 µM
Records with an inconclusive call do not appear. The source made the active and inactive calls. Calls come from the whole dose curve; as a rule, active = well fitted inhibition curve with a large enough effect; inconclusive = small, poorly fitted or top-dose-only effect; inactive = flat fitted curve, though single readings scatter.
Outcomes: y = active, n = inactive

Chemical smiles	Class name
C=C1c2cccc(O)c2C(O)=C2C(=O)[C@]3(O)C(O)=C(C(N)=O)C(=O)[C@@H](N(C)C)[C@@H]3[C@@H](O)[C@H]12	n
CN(C)CCC[C@@]1(c2ccc(F)cc2)OCc2cc(C#N)ccc21	n
O=C(CCCN1CC=C(n2c(=O)[nH]c3ccccc32)CC1)c1ccc(F)cc1	n
CCCCCCCCCCC[C@@H](C[C@@H]1OC(=O)[C@H]1CCCCCC)OC(=O)[C@H](CC(C)C)NC=O	n
CCCN(CCC)S(=O)(=O)c1ccc(C(=O)O)cc1	n
CCOC(=O)[C@H](CCc1ccccc1)N[C@@H](C)C(=O)N1[C@H](C(=O)O)C[C@@H]2CCC[C@@H]21	n
NC(=O)c1ccccc1O	n
O=C(NCCc1c[nH]c2ccccc12)c1cccnc1	n
CCCCCCCCCCCCOCCOCCOCCOCCOCCOCCOCCOCCOCCO	y
COc1cc(C(=O)N2CCCCCCC2)cc(OC)c1OC	n

###

Tested on: JEG-3
Assay procedure: Primary qHTS to identify gynecologic anti-cancer compounds using libraries of approved drugs and bioactive compounds (AID 1345084); note: % is set by controls: 0 for no effect and ±100 for the full control effect; nearly all actives have a fitted effect of over 55% in size
Experimental setup: Gynecologic cancer cell panel viability, ATPlite luminescence, 48 h; series mostly up to 57.5 µM
Records with an inconclusive call do not appear. Activity calls are given as the source filed them. The call rests on the fitted dose curve; in most records, active means well fitted cell-killing curve with a large enough effect; inconclusive means small, poorly fitted or top-dose-only effect, or effect the other way; inactive means flat fitted curve, though single readings scatter.
Measurement kind: activity change, negative = cytotoxicity

Chemical smiles	Result
CNCCCCOc1ccccc1Cc1ccccc1	inactive
O=C(CCCN1CC=C(n2c(=O)[nH]c3ccccc32)CC1)c1ccc(F)cc1	inactive
Cn1c(=O)c2[nH]c(Br)nc2n(C)c1=O	inactive

###

Tested on: NIH3T3
Assay procedure: Cytotoxic Profiling of Annotated Libraries Using Quantitative High-Throughput Screening (AID 1296008); note: % is set by controls: 0 for no effect and ±100 for the full control effect; nearly all actives have a fitted effect of over 60% in size
Experimental setup: Five cell lines viability, CellTiter-Glo ATP luminescence, 48-72 h; stronger effect = lower value
Records with an inconclusive call do not appear.
Each entry below carries its reported max response.
Measurement kind: max response (%)

Compound	Unit of measure	Recorded number
CCCCN1C[C@H](O)[C@@H](O)[C@H](O)[C@H]1CO	%	-2.42
CC(C)(C)NC[C@H](O)COc1cccc2c1CCCC2=O	%	-0.923
O=C1OC(CN2CCOCC2)CN1/N=C/c1ccc([N+](=O)[O-])o1 (configuration not stated)	%	-5.18
CN(CCCN1c2ccccc2CCc2ccccc21)CC(=O)c1ccc(Cl)cc1	%	3.31
CCc1ccc(C(=O)C(C)CN2CCCCC2)cc1 (configuration not stated)	%	-2.26
N=C(N)N1CCc2ccccc2C1	%	-1.16
COc1ccc(-c2cc(C(F)F)nn2-c2ccc(S(N)(=O)=O)cc2)cc1F	%	1.89
COc1cc(O)c(C(=O)c2ccccc2)cc1S(=O)(=O)O	%	1.08
O=C(O)CCC(=O)Nc1ccc(S(=O)(=O)Nc2nccs2)cc1	%	-7.15
OCc1ccccn1	%	-14.5
O=C(O)Cc1csc(-c2ccc(Cl)cc2)n1	%	1.14
C[C@@H](O)[C@H]1C(=O)N2C(C(=O)O)=C(S[C@@H]3CN[C@H](CNS(N)(=O)=O)C3)[C@H](C)[C@H]12	%	3.07
Cc1c(-c2ccccc2)oc2c(C(=O)OCCN3CCCCC3)cccc2c1=O	%	3.38
CN1CCN(c2cc3c(cc2F)c(=O)c(C(=O)O)cn3-c2ccc(F)cc2)CC1	%	-2.14
CCCCOC(=O)CC(CC(=O)OCCCC)(OC(C)=O)C(=O)OCCCC	%	-2.35
C#C[C@]1(O)CC[C@H]2[C@@H]3CCc4cc(OC)ccc4[C@H]3CC[C@@]21C	%	-5.18
COc1ccc(S(=O)(=O)N2c3ccc(Cl)cc3[C@@](O)(c3ccccc3Cl)[C@H]2C(=O)N2CCC[C@@H]2C(N)=O)cc1OC	%	1.04
CN(Cc1ccc(C(C)(C)C)cc1)Cc1cccc2ccccc12	%	-14
CCCCC(CC)COC(=O)/C=C/c1ccc(OC)cc1 (configuration not stated)	%	-7.17
Cc1cc(C)cc(OCC2CNC(=O)O2)c1 (configuration not stated)	%	0.518
C#C[C@]1(O)CC[C@H]2[C@@H]3[C@H](C)CC4=C(CCC(=O)C4)[C@H]3CC[C@@]21C	%	-7.98
CCC1NC(=O)c2cc(S(N)(=O)=O)c(Cl)cc2N1 (configuration not stated)	%	3.38
